- Tested on: Liver
- ASSAY_DETAILS: Biodistribution in liver of B16F0 tumor bearing C57BL/6J mouse at 0.37-0.74 MBq, iv after 1 hr
- Assay type: ADME, organism-based
- PROTOCOL_CONDITIONS: in vivo
Drug uptake by entry:

Look over these answered cases.
CCN(CC)CCNC(=O)c1cc([123I])c(NS(=O)(=O)c2ccc(C)cc2)cc1OC | 3.8 % ID/g
CCN(CC)CCNC(=O)c1cc([123I])c(NS(C)(=O)=O)cc1OC | 2.3 % ID/g
O=C(NC1CCN(CCF)CC1)c1ccc(I)cc1 | 19.2 % ID/g

For this compound ( `CCN(CC)CCNC(=O)c1cc([123I])c(NC(C)=O)cc1OC` ), measured Drug uptake is 9 % ID/g
